# Tested on: UO-31 renal
# Experimental Details: NCI-60 one-dose screen, 48 h (100 = growth as untreated, 0 = no growth, -100 = all killed)
# Test Context: 10 µM
Compounds without any hit were thinned out: in the full panel of roughly 83,000, 20% have a hit.
Reported Property: growth (%)
Just the number please, in %, no unit attached.

1. O=C1/C(=C\c2ccc(Cl)cc2)CN(C(=S)Nc2ccccc2)C/C1=C\c1ccc(Cl)cc1; -95
2. CCN(CC)Cc1cc(Nc2ccnc3cc(Cl)ccc23)ccc1OC; 55.9

// below: growth requested for another compound
Using the record for c1ccc(C(NC2CC3CCC2C3)c2ccccc2)cc1 (stereo not drawn) , report its growth.
65

---

The following molecules are listed with their measured growth values.
# Test system: NCI-H322M lung
# Experimental Details: NCI-60 one-dose screen, 48 h (100 = growth as untreated, 0 = no growth, -100 = all killed)
# Test Context: 10 µM
# Protocol: Growth inhibition of the NCI-H322M human Non-Small Cell Lung tumor cell line is measured as a screen for anti-cancer activity. Cells are grown in 96 well plates and exposed to the test compound for 48 hours. Compounds are tested at a single concentration, which is 10^-5 M for most compounds. The reported endpoint is percent growth (GI% or GIPRCNT), where numbers from 0 - 100% represent growth inhibition, and numbers from -100% - 0 represent cell death. […]
About 83,000 compounds went through this panel and 20% of them were active in at least one assay; those are over-represented in the sample as a whole.
Please state the figure in %; there is no need to write the unit.

1. COc1ccc(/C=C/C(=O)Nc2ccc(-c3nc4ccc(OC)cc4s3)cc2)cc1; 112
2. S=c1[nH]ccn1-c1c(Cl)cccc1Cl; 102
3. O=C(Nc1ccc(Cl)c(Cl)c1)Nc1c(Oc2ccc(Cl)c(Cl)c2)ccc(Cl)c1S(=O)(=O)O; 50.8
4. Nc1c(C(=O)Nc2cccc3ccccc23)sc2nc3c(cc12)C(=O)CCC3; 37.6
5. COc1cc(C(=O)/C=C/c2cc(-c3cc(OC)c(OC)c(OC)c3)n[nH]2)cc(OC)c1OC; -8.96
6. c1ccc([C@H]2CN3CCSC3=N2)cc1; 101

If you can, please state the reported growth value of `C#Cc1ccc(-n2c(/C=C/c3ccc(C(F)(F)F)cc3)nc3ncccc3c2=O)cc1` .
33.7

Could you do the same for `COc1cccc(-c2cc(-c3cccc(NS(C)(=O)=O)c3)nc(N)c2C#N)c1O` , please?
34.6

What do you have for `Cn1c([N+](=O)[O-])cnc1/C=C1\Oc2ccc(Cl)cc2C1=O` ?
11.4

Would you kindly repeat that for `O=C(CCCCC[P+](c1ccccc1)(c1ccccc1)c1ccccc1)NC(COC(=O)C(Cl)Cl)(COC(=O)C(Cl)Cl)COC(=O)C(Cl)Cl` ?
99.5

Quick one: `CCN(CC)CCNc1ccc(CO)c2oc3cc(Cl)ccc3c(=O)c12`
97.4

Then what about the molecule `CC(C)C[C@H](NC(=O)[C@H](Cc1cccc2ccccc12)NS(=O)(=O)c1cccc2cccnc12)B(O)O` ?
-9.95

---

# System: A549/ATCC NSCLC
# Experimental Details: NCI-60 one-dose screen, 48 h
# Test Context: 10 µM
About 83,000 compounds went through this panel and 20% of them were active in at least one assay; those are over-represented in the sample as a whole. Active and inactive are the calls of the source. Rule for the calls: active = growth percent below 10; inactive = the rest.
Give your call using only these classes: true for active, false for inactive

Consider the worked cases shown below.
1) Cc1cccc(NC2=C(C#N)C(=O)NC3(CCCC3)S2)c1; false
2) Cc1cc(Cl)nc(N(CCCNc2ccnc3cc(Cl)ccc23)Cc2cccs2)n1; false
3) Cc1ccc(NC(=O)Nc2c(Cl)cccc2Cl)cn1; false

Fill in: this test's call for `CN(C)CCCn1c(=O)c2ccccc2c2cnc3[nH]ccc3c21` is ___
true

// same read-out, input: `CCN(CC)CCNc1ccc(CO)c2oc3cc(Cl)ccc3c(=O)c12`
false

Next compound up: `COc1ccc2c(c1)C(=O)c1c-2c(OCCN(C)C)nc2ccccc12`
false

Follow-up item: `CN(C)CCN1C(=O)c2cccc3cc(N)cc(c23)C1=O`
false

Ok, now `N#Cc1ncc(-c2ccc(C(F)(F)F)cc2)c(NCc2cc(C(F)(F)F)cc(C(F)(F)F)c2)n1`
false

How about `O=C(Nc1ccc(Cl)c([N+](=O)[O-])c1)Nc1nc2ccccc2s1` ?
false

Input CCOC(=O)CCC(NC(=O)c1ccc(N)cc1)C(=O)OCC (stereo not drawn)
false

Further, for CC(=O)N1N=C(c2ccc(Cl)cc2)CC1c1sc(Cl)nc1Cl (stereo not drawn) ?
false

Same question for `N#Cc1cccc(OCc2nc(N)nc(N)c2-c2ccc(Cl)c(Cl)c2)c1` please.
true

Another compound to look at: `O=C(Nc1nc2ccc(F)cc2s1)c1cc(-c2ccc(F)cc2)n2nc(-c3ccccc3)cc2n1`
false

Item: `CC(C)=CCc1ccc(O)c(=O)cc1C(C)C`
true

Next: `COc1ccc2c(c1)O/C(=C\c1ccc([N+](=O)[O-])o1)C2=O`
true

Another: `C=C(Cl)[C@@](Cl)(CBr)CC[C@@H](Br)C(C)(C)Cl`
true

Request: `CCCCOc1ccc(NC(=O)Nc2nnc(C)s2)cc1`
false

And then `Cc1ccc(NC(=O)Nc2nc3ccccc3s2)cc1NC(=O)Nc1nc2ccccc2s1` , what is it?
false

Then what about the compound `CCOC(=O)C(=Cc1ccc(Br)cc1)C(=O)OCC` ?
true

Now this one: CCCCCCCCCCCCCCCCN(C(C)c1ccccc1)S(=O)(=O)c1ccc(OC)c(N)c1 (stereo not drawn)
false

Query `CCN(CC)CCSCCN(CC)CC` next
false

Further, for `Cn1c(N)c(N=Nc2ccc(S(=O)(=O)Nc3nccs3)cc2)c(=O)n(C)c1=O` ?
false

Repeat for the following compound: `O=C(/C(=C/c1ccccc1)CN1CCCCC1)c1ccccc1`
true

Do the same for CCCCCCN(CCCCCC)CC(O)c1ccc2c3c(cccc13)CC2 (stereo not drawn) please
false

Same again, this time with Nc1c(C(=O)Nc2ccccc2)sc2nc3c(cc12)C(O)CCC3 (stereo not drawn)
false
